# Assay Remarks: E. coli acrAB mutant growth effects, primary screen, E. coli filamentation inducers, strain DRC39, OD650, 24 h (AID 1178);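 note: growth measured as culture turbidity by optical density at 650 nm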
# Measurement Conditions: higher = more signal, called active from +8 up or from −8 down
Label scheme for z-score: lower than 0.4 is n, 0.4 and above is y.

Check out these entries, answers already filled in.
{"Compound": "COC(=O)[C@@]1(Cc2ccc(OC)cc2)[C@H]2c3cc(C(=O)N4CCCC4)n(Cc4ccc(OC(F)(F)F)cc4)c3C[C@H]2CN1C(=O)c1ccccc1", "Category": "n"}
{"Compound": "Cc1ccc(S[C@]2(C(=O)NCc3ccccc3)CC(=O)N(Cc3cc(C(F)(F)F)cc(C(F)(F)F)c3)[C@@H]2c2ccc(CO)cc2I)cc1", "Category": "y"}
{"Compound": "CN1C(=O)C2C=CC(C(O)c3cc(C(F)(F)F)cc(C(F)(F)F)c3)N(Nc3ccccc3)C2C1=O (configuration not stated)", "Category": "n"}
{"Compound": "CC(C)CNC(=O)[C@@H]1c2ccccc2C(=O)N(C2CCCCC2)[C@H]1c1ccc(CO)cc1", "Category": "y"}
{"Compound": "Nc1cc(Br)ccc1C(=O)O", "Category": "n"}
{"Compound": "CC(CO)N1C(=O)[C@@H]2[C@H]3C(=O)OCC=C[C@H]3OC23C=CCN(c2ccc(Cl)cc2)C(=O)[C@@H]13 (some centres not stated)", "Category": "y"}
{"Compound": "O=C1C2C=CC(C(O)C=Cc3ccc([N+](=O)[O-])cc3)N(Nc3ccccc3)C2C(=O)N1c1ccccc1 (configuration not stated)", "Category": "n"}
{"Compound": "COC(=O)[C@@]1(Cc2ccccc2CN=[N+]=[N-])N=C(c2ccc(OCCCO)cc2)O[C@H]1c1ccccc1CN=[N+]=[N-]", "Category": "y"}
{"Compound": "O=C1c2ccccc2[C@](Cc2ccccc2I)(C(=O)NC2CC2)[C@H](c2ccc(CO)cc2)N1Cc1ccccc1C(F)(F)F", "Category": "n"}
{"Compound": "COc1ccc([Si](C)(C)[C@H]2[C@H](CCO)O[C@@]3(C(=O)N(Cc4ccccc4)c4ccc(N5C(=O)c6ccccc6Oc6ccccc65)cc43)[C@@H]2C)cc1", "Category": "n"}

Query: Would you say O=C1C2C=CC(C(O)c3cccc(O)c3)N(Nc3ccccc3)C2C(=O)N1c1ccccc1 (configuration not stated) shows z-score at minimum 0.4?
Reply: n

Query: Would you say CCOC(=O)C1=CCC(c2ccco2)N(S(=O)(=O)c2ccc(C)cc2)C1 (configuration not stated) shows z-score at minimum 0.4?
Reply: n

###

# Tested on: XIP peptide (Xip251-270)
# Assay Remarks: small-molecule binders of XIP peptide, primary screen, biochemical, small-molecule microarray, fluorescence 635/667 nm, 0.5 µg/mL protein (AID 1183)
# Measurement Conditions: small-molecule microarray binding, fluorescence 635 nm; higher = more signal
# maps each entry to its composite z-score
Enter the number alone.

{"Compound": "CS(=O)(=O)CCOC(=O)C1=CC(CCCO)=CC(C2CC2)N(Cc2cccc(OC(F)(F)F)c2)C=C1C(=O)OCCS(C)(=O)=O (configuration not stated)", "composite z-score": -0.221}

Query: Note composite z-score for the compound shown: COCCOC(=O)N1C(=O)[C@@]2(c3cc(C#CCC(C(=O)OC)C(=O)OC)ccc31)[C@H](c1ccc(O)cc1)N1[C@H](c3ccccc3)[C@H](c3ccccc3)OC(=O)[C@H]1[C@@H]2C(=O)NC[C@H](O)c1ccccc1
Reply: 0.465

Query: Note composite z-score for the compound shown: O=C1OCC=C[C@H]2OC34C=CCN(c5ccc6ccccc6c5)C(=O)[C@H]3N(CCCCCO)C(=O)[C@@H]4[C@@H]12 (some centres not stated)
Reply: 0.351

Query: Note composite z-score for the compound shown: CN(C)CCCC[C@@H]1NC(=O)[C@@H]2C[C@H](C(=O)O)[C@H](c3cccc(OCCO)c3)N2C1=O
Reply: 0.0695

Query: Note composite z-score for the compound shown: CCCCC=C[C@@H](NC(=O)c1ccccc1)c1ccccc1
Reply: 0.496

Query: Note composite z-score for the compound shown: CN(C)C(=O)[C@]1(CCS(=O)(=O)c2ccccc2)N=C(c2ccc(OCCCO)cc2)O[C@@H]1c1ccccc1
Reply: 0.701
